systemUnderTest: Gal(b1-4)GlcNAc(b1-3)Gal(b1-4)GlcNAc(b1-6)[Gal(b1-3)]GalNAc
protocolDetails: glycan array binding signal (z-score within array); higher = stronger binding
measurementContext: glycan notation: IUPAC condensed, linker removed
Many of the other results were omitted from the sample, so the strongest signals are more common in it than they were.
quantityName: glycan array binding signal (z-score)
Form rule: numeric answer, no unit written next to it.

Asked: Which value of glycan array binding signal (z-score) has been reported for Jacalin (Artocarpus integrifolia) (protein) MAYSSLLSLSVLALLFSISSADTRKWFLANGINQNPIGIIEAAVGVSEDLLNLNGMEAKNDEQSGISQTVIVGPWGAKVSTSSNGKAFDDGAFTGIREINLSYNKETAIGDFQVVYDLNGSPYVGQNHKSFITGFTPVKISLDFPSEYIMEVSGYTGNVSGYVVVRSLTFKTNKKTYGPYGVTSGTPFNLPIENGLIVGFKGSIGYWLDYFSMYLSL in the records?
Given back: 0.001

Asked: How about this binder: DrGal9 (Danio rerio) (protein) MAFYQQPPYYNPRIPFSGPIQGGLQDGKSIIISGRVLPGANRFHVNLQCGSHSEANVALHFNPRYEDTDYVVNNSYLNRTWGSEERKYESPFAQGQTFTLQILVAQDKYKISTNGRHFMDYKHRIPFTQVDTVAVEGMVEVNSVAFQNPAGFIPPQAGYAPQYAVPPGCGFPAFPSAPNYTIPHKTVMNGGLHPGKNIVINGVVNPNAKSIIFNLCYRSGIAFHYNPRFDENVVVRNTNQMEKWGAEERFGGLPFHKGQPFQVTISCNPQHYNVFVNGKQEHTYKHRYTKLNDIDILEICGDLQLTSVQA
Given back: 0.054

Every entry's value here was drawn from the supplement of paper PMC8728848.
